From: the domain aggregation screens of Martell et al. (2025)

Measured soluble fraction (log2) values are reported for all entries that follow.
- protocol summary: soluble fraction after stress (log2 fold change); higher = more stays soluble; pooled small domains, quantitative proteomics;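 also: 20 min heating vs room temperature control held 20 min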
- condition notes: stress: 75 degC
metric name: soluble fraction (log2)

[[record]]
biosequence = "HMTERIRLHDDIGSWVEKHGATRSALIPVLQGIQRSYNEISEYAMQEVADRLDIHPVEVYSVVSFYSF"
value_measured = 0.307

[[record]]
biosequence = "HMQEEMIRGDIKLNTVMQTVHLAVGTETERNWQPVETTAKEFELLKLLMENPGVTLKKEYLFHMLI"
value_measured = -0.101

[[record]]
biosequence = "HMQRRHESTPIPADFDYAAVRGLSAEVQQKLERVRPLSIGQAQRIPGMTPAAISLLLVHLERQRRSRV"
value_measured = -1.24

[[record]]
biosequence = "HMDIYLTAFKTTSNQVTLNGIARSDLIISEFMRDIRDAKLFGEPVLQVIQNKNLNNVQARVFELVVPL"
value_measured = 0.115

[[record]]
biosequence = "HMNASVIADLFRQTGASVMIHGHTHRPDIHALEANGDAAFRAVLGAWHTEGSMIRVTQDDVTLIAFP"
value_measured = 0.0461

[[record]]
biosequence = "HMDDYRIEDMMTVVEEQVIRQKETNLSWFFKRAGSLNEIITIFLAALELIKVHRVYVKQEHNFDDIILRKE"
value_measured = 0.305

[[record]]
biosequence = "HMPRVSIEKIKKVVELLKHNPDYTYSKIGNIVGIGRKTVSGINNGKLYTDLVEELGINEFPI"
value_measured = -0.459

[[record]]
biosequence = "HMVFKSAQEGLDFYSKQLNDVDATLGRIRRGEESGNGLYGSNRVKNLEEQRKKLDSFVTAYRNAVNAT"
value_measured = 0.0212

[[record]]
biosequence = "HMWSNTAVIDRIRQLHEEGQPISSQSVQVNHKSLYMAAIKRFRGWKRAVEAAGIDYRQIRLR"
value_measured = -2.29

[[record]]
biosequence = "HMTTYTGVVTGSGVNVRSGAGTSYPVVGSKTMGDVVTITETVSADGMIWGKIDIGWISMNYVRM"
value_measured = -2.75

[[record]]
biosequence = "HMDTIASESVRNRIEELISNENPKKPLSDQALVKMLQEFDIKIARRTVAKYREMLKIPPSSKRKQV"
value_measured = -0.265

[[record]]
biosequence = "HMVEYFDDENLDAFIGRESDSYTEKEIEQFREILYTMNQKEVADWNRSLTIRGINIPNDLKDEMIMMI"
value_measured = -0.225

[[record]]
biosequence = "HMSSNLSLHKEGNKIVILGLEGKSVIEVYDLMGRLLSSQTNYNPKQEITLLQPVIIRVTDTQQTKSFKV"
value_measured = -1.5

[[record]]
biosequence = "HMYVKKSSFVKKSLNNYEFKITDNTNDLLIFYKGMLPDLFREEQGIVVEGLIDKNNNIVASKV"
value_measured = 0.0603

[[record]]
biosequence = "HMSRGAIVTGTVIEKNQSGIYVDLGYKSDGIVPIEEFDGEESKYNVGDQIRVYVKKVDDGHGQLML"
value_measured = 0.142

[[record]]
biosequence = "HMGETISVPAVRSLAYDRAVDMLTAEGLKGIVADSVYDNRTQPGTVIEQNPKAGTIVKEGREVYLTINA"
value_measured = 0.275

[[record]]
biosequence = "HMVDLANIDPIASSIKLNGAEADASFNTLEDRRVSVSGSFEENKNYTMEYTFKDYAGGSVTGTLDFKTLA"
value_measured = 0.36


---

- protocol summary: soluble fraction after stress (log2 fold change); higher = more stays soluble; pooled small domains, quantitative proteomics
- condition notes: stress: 75 degC
Items are presented alongside their recorded soluble fraction (log2).
metric name: soluble fraction (log2)

[[record]]
biosequence = "HMNIAAVIGQTGVLQDDLKAGEQGTVKADNKLWTAVLAEGEEAVKKEERVDIVAVEGVKLIVRRNI"
metric_name = "soluble fraction (log2)"
value_measured = 0.663

[[record]]
biosequence = "HMRREIRLTVTEEIVLMKFLLTQIPYKNRDNFKTLLNDRQIRVNGSVVTWYNHPLKPGQEVTIGWFKM"
metric_name = "soluble fraction (log2)"
value_measured = -0.264

[[record]]
biosequence = "HMLPNIKSEMEILGDNAKARLEAAELWSKKYLSNEAYDTMSKLATTADGVKAIEEIMNITKS"
metric_name = "soluble fraction (log2)"
value_measured = 0.0754

[[record]]
biosequence = "HMLDLSEEEQKIVSILEKQGNLQINSLVVEADIPVHKINAILFELEMKGVVRVLALSLIHISEP"
metric_name = "soluble fraction (log2)"
value_measured = 0.149

[[record]]
biosequence = "HMAVSSYSVKRYIRNMIQAEDPSAPFSDEALRLALLAHGIAVSRRVVTKYRMAMDIPSSSQRRKR"
metric_name = "soluble fraction (log2)"
value_measured = -1.41

[[record]]
biosequence = "HMTSNSLNLKDEISAFLTKNAGISYSAERIAHALNMDNADQFTPIIQTLAQLEREKKVRVTDKGEFEAVIK"
metric_name = "soluble fraction (log2)"
value_measured = 0.02

[[record]]
biosequence = "HMGGFSVTAEAFDGTPEVGKTVGFTAGSTKIKVEDTKGDATFGTILEKETVGFGEGKYTYFYIGL"
metric_name = "soluble fraction (log2)"
value_measured = -0.428

[[record]]
biosequence = "HMAPNVEENSKLIGEIGMTLTPLRPSGIATINNRRVDVVSNGDFIDQDERVMVKRVQGARVVVIPV"
metric_name = "soluble fraction (log2)"
value_measured = 0.168


---

# soluble fraction (log2) per record follows
- protocol summary: soluble fraction after stress (log2 fold change); higher = more stays soluble; pooled small domains, quantitative proteomics
- condition notes: stress: 75 degC
metric name: soluble fraction (log2)

[[record]]
biosequence = "HMTSMNNTEELIDMANKIIDNNPNMVLKYKEGRNVLDFFIGQVMKETKGRANPSATSKIFKDLLEK"
metric_name = "soluble fraction (log2)"
value_measured = -0.0827

[[record]]
biosequence = "HMEFQEQLYRLRKQAGLSQEELSHIIGVSRQAVQKWEAGSARPDLDNLIALASHFKLSLDQLVGLT"
metric_name = "soluble fraction (log2)"
value_measured = -1.01

[[record]]
biosequence = "HMVITEQTVTVKYLYEDDTEAAPEHSETHKTGETFEIESPKIDGFTPDYELITGTIANDDLVYIVRYKTTP"
metric_name = "soluble fraction (log2)"
value_measured = -0.487

[[record]]
biosequence = "HMETFGEKDLDELIGRNVELITHDGKVREGLVDSVDRYNVSLVRYLDAGEVAMMVRRREVKAVRLK"
metric_name = "soluble fraction (log2)"
value_measured = -0.703

[[record]]
biosequence = "HMVSDAELTSQATTAITAYPGTSVEVKEGQAHLSGTFATEADKQAAIDALKKIQDVKDVHDMATV"
metric_name = "soluble fraction (log2)"
value_measured = 0.152

[[record]]
biosequence = "HMKYYIYQGLGDSGELTKIAEVTDVKTYTATGLEANTKYRFAVSAYNGLRESSKSNIITVTT"
metric_name = "soluble fraction (log2)"
value_measured = 0.0116

[[record]]
biosequence = "HMRKYKIKEELPDNIYKIIQDNPGIVQKDIYDILGREYQQNISSYIYSMDKNGVIKRDKHGNSYKLYL"
metric_name = "soluble fraction (log2)"
value_measured = -0.119

[[record]]
biosequence = "HMENPVPVIITDQNFQPLLWKNVGVPTDTIFHELSPENQKKLENLMKTMVQMPLTDDGRISGYAYYSK"
metric_name = "soluble fraction (log2)"
value_measured = 0.0767


---

- protocol summary: soluble fraction after stress (log2 fold change); higher = more stays soluble; pooled small domains, quantitative proteomics
- condition notes: stress: 75 degC
Listing of recorded soluble fraction (log2) by entry.
metric name: soluble fraction (log2)

[[record]]
biosequence = "HMHMSKKLADSISALRKKNGLSQEQLAEKIGISRQTVSNWERGIATPDVETLNLISKLFDEDLSVMING"
metric_name = "soluble fraction (log2)"
value_measured = -0.073

[[record]]
biosequence = "HMEQEVLDLLFDAIRSLPEKYRRLFDMSFEQGLKNAEIAALLHVSESAVKKQKASMIQQLRDDLLRKTGKD"
metric_name = "soluble fraction (log2)"
value_measured = -0.745

[[record]]
biosequence = "HMSGWIATGTATSTGNDVRVRSTPDATVNNNILLTLNKGNRFEIDGQTQNGFYHIKVNDTIGWISGLYVKE"
metric_name = "soluble fraction (log2)"
value_measured = -0.976

[[record]]
biosequence = "HMHQKELLNLSYKEAKRYILDDFERVFFTNLLRKTGGNVSRAAQLAQVHRKNLYVKLTELGIDPRQFG"
metric_name = "soluble fraction (log2)"
value_measured = -1.53

[[record]]
biosequence = "HMENLSFNINSEEEGQRIDKYLSVMIEGKSRSFVQGLIEEKKVKANSKVIKSNYKLKKGDFIEVEVPEPV"
metric_name = "soluble fraction (log2)"
value_measured = 0.289

[[record]]
biosequence = "HMRRPRGVFNLVPGKRFGFITPDGGGEDVFAHLANVRAGHVAEDRNAVEYGIGRGPDGRDQAVDIVPMP"
metric_name = "soluble fraction (log2)"
value_measured = -0.329

[[record]]
biosequence = "HMEPEDVIAMERYLASGAIKGIGVTLAGRIIKKFQKETFHIIEEEPERLSEVKGISEKLAREIYQQFTQK"
metric_name = "soluble fraction (log2)"
value_measured = -1.11

[[record]]
biosequence = "HMNTVSVGNLGLSVRAVNALKQAGIDTYDKLQELSWEELLLIPKLGQVTAAEIYRFITSYKKG"
metric_name = "soluble fraction (log2)"
value_measured = -1.56

[[record]]
biosequence = "HMNGLNISYRMDGENVVETIVFPDATMIRTIAPNGVMTIKTIEDGSVSTSELKADYKLYKKIYESQY"
metric_name = "soluble fraction (log2)"
value_measured = -0.748

[[record]]
biosequence = "HMAKRTVPSVAEAIDNFRRQHRRMPSYAEMLPLLGVRSKSVVHFWINKLLENGLLEKDDKGYLTPGS"
metric_name = "soluble fraction (log2)"
value_measured = -0.134

[[record]]
biosequence = "HMQAPIFMNETDGKWYFREKYLNDNHEIAYRVHPEGYDQMEDALRNSVNALNEFAAEMKELRKQV"
metric_name = "soluble fraction (log2)"
value_measured = -0.0803

[[record]]
biosequence = "HMESSYKGFILDIETRQFSPTLIQRRGIAINPSGIVETTTEFSFATQEKVLIEDLKLIIDELDLRADY"
metric_name = "soluble fraction (log2)"
value_measured = -3.69

[[record]]
biosequence = "HMTEKIRLTVDEAGKNQRVDKYISTLLTQFSRSSIKTWIETGNILLDNTRTKPRTLLSPGQVIDIQPRFED"
metric_name = "soluble fraction (log2)"
value_measured = -1.09

[[record]]
biosequence = "HMAEVRTLLVPIELAGMRFDQVLAELLPEFSRSRLAAWIKSGDALLDGHDAKPKGVVRGGEQIEIRLA"
metric_name = "soluble fraction (log2)"
value_measured = -0.0127

[[record]]
biosequence = "HMTGMEASLSKLLQGEQFADLRKALIDKGIRKLEAFKRLNLWVFMNRNRLYSIGQRQTVYSTLQRALASE"
metric_name = "soluble fraction (log2)"
value_measured = -0.0934

[[record]]
biosequence = "HMDQNVSVPKLAGLQVEEANAILKSKGLHIEIIDSIYQKDAVPGAIIEQVPEENSKVKKGRAIYVSVYAK"
metric_name = "soluble fraction (log2)"
value_measured = -0.65

[[record]]
biosequence = "HMSPDTREAILAAARTAFARDGYQTSLRGIARDAGVDPALVHHYFPDRATLFAKAVIESTAG"
metric_name = "soluble fraction (log2)"
value_measured = -0.0532

